- assay-procedure: Food effect on single dose Compound of Formula I 100 mg single agent tablet (8 subjects)
- Format: in vivo, human
- measurement-conditions: human, plasma, oral, 100 mg, mean; Compound of Formula I 100 mg single agent tablet, Fasted, n = 8
endpoint-label: AUC(0-inf) (µg·h/mL)
Give your result in µg·h/mL as a bare value.

[Q] Would you mind telling me what AUC(0-inf) value was observed for O=C(NCc1c(F)cc(F)cc1F)c1cn2c(c(O)c1=O)C(=O)N1[C@H]3CC[C@H](C3)O[C@@H]1C2 [Compound of Formula I] ?
[A] 118

====

- assay-procedure: Relative bioavailability and food-effect crossover study, cohort 1 (bilayer tablet F2 vs F1 co-administered with F3)
- measurement-conditions: human, plasma, oral, AUClast, plasma, mean; F1 Compound of Formula I (75 mg) + F3 F/TAF (200/25 mg) co-administered, fasted, Reference, N = 28, cohort 1
endpoint-label: AUC(0-t) (µg·h/mL)
Numbers only; they are read as µg·h/mL.

[Q] Dear colleague, I am looking for the recorded AUC(0-t) of the following compound: O=C(NCc1c(F)cc(F)cc1F)c1cn2c(c(O)c1=O)C(=O)N1[C@H]3CC[C@H](C3)O[C@@H]1C2 [Compound of Formula I]
[A] 120
